System: ATP;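 also: ATP exposure 15 min at 22 °C before imaging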
Test: switch fluorescence ratio, 500 uM ATP over buffer (Cy3 cluster intensity, sum of 5 cycles each) (fold (ratio)); higher = stronger signal-on switching upon ATP binding; sequences stand for … in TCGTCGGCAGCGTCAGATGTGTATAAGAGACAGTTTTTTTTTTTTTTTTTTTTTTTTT…TC
Conditions: aptamer strand: ATP DNA aptamer (quencher-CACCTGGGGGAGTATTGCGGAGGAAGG + anchor), 100 nM annealed; ATP concentration: 500 uM
Listed next: entries and their corresponding switch fluorescence ratio.
Respond using a number only.

Illustrative cases are given below, each with its answer.
| ORDERED RESIDUES | switch fluorescence ratio |
| --- | --- |
| GCAAAAAATT | 1.01 |
| GGGGGATTCC | 1.02 |
| GAGAATAATA | 0.988 |

Query string: Need switch fluorescence ratio, item TTGGGGAATT
Result string: 1

Query string: Need switch fluorescence ratio, item CTAGGGGTAT
Result string: 1.03

====

Test system: ATP;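 also: ATP exposure 15 min at 22 °C before imaging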
Experiment: switch fluorescence ratio, 500 uM ATP over buffer (Cy3 cluster intensity, sum of 5 cycles each) (fold (ratio)); higher = stronger signal-on switching upon ATP binding; sequences stand for … in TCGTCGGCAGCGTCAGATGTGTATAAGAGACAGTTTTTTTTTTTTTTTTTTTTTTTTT…TC
Settings: aptamer strand: ATP DNA aptamer (quencher-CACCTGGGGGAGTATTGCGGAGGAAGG + anchor), 100 nM annealed; ATP concentration: 500 uM
Assign TRUE whenever switch fluorescence ratio does not fall below 1; assign FALSE whenever it does.

Below are worked cases with known answers.
| ORDERED RESIDUES | SYSTEM NAME | ASSIGNED CATEGORY |
| --- | --- | --- |
| TAGAGGGGCG | ATP | FALSE |
| TCCACCGTTC | ATP | TRUE |
| AGGTCGCCTG | ATP | TRUE |
| GCATTACTTG | ATP | TRUE |
| AGGGTCTGTA | ATP | FALSE |

Query string: Does the reported switch fluorescence ratio for CTGCAGTTGA fall at or above the 1 mark?
Result string: TRUE

Query string: Does the reported switch fluorescence ratio for TATAAAAATC fall at or above the 1 mark?
Result string: TRUE

Query string: Does the reported switch fluorescence ratio for CTTGCGTGTC fall at or above the 1 mark?
Result string: TRUE

Query string: Does the reported switch fluorescence ratio for TTTTAATTG fall at or above the 1 mark?
Result string: FALSE

Query string: Does the reported switch fluorescence ratio for CTGGTATGCG fall at or above the 1 mark?
Result string: FALSE

====

Listed next: entries and their corresponding switch fluorescence ratio.
Test system: ATP;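 also: ATP exposure 15 min at 22 °C before imaging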
Experiment: switch fluorescence ratio, 500 uM ATP over buffer (Cy3 cluster intensity, sum of 5 cycles each) (fold (ratio)); higher = stronger signal-on switching upon ATP binding; sequences stand for … in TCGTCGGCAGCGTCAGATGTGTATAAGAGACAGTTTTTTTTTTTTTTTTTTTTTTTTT…TC
Details: aptamer strand: ATP DNA aptamer (quencher-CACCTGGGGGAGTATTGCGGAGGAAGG + anchor), 100 nM annealed; ATP concentration: 500 uM
Respond using a number only.

| ORDERED RESIDUES | switch fluorescence ratio |
| --- | --- |
| AAAATAATTG | 1.03 |
| TTGTTAATAT | 1 |
| TGCGTAGTGC | 1.09 |
| GAACCAGGGG | 1.27 |
| CGTTGGTGTC | 0.992 |

Query string: Need switch fluorescence ratio, item GTTTTTAGT
Result string: 1.01

Query string: Need switch fluorescence ratio, item GACTGGGGAT
Result string: 0.995

Query string: Need switch fluorescence ratio, item AAAGGGTAAC
Result string: 0.988

Query string: Need switch fluorescence ratio, item CTGAGCAAG
Result string: 2.34

Query string: Need switch fluorescence ratio, item GGAGACATGT
Result string: 1.01

Query string: Need switch fluorescence ratio, item TCATGGGTAA
Result string: 1.01

Query string: Need switch fluorescence ratio, item TAGTCAGCC
Result string: 1.01

Query string: Need switch fluorescence ratio, item TTGTTGTATG
Result string: 1.02

Query string: Need switch fluorescence ratio, item CCGGTCTTTT
Result string: 0.961

Query string: Need switch fluorescence ratio, item GATAGTTTAC
Result string: 1.01

Query string: Need switch fluorescence ratio, item GGGATTTTGT
Result string: 0.983

Query string: Need switch fluorescence ratio, item CCAAGATGTG
Result string: 0.997
